Target: CDK2 enzyme, complexed with cyclin A (Homo sapiens, UniProt P24941)
Assay: CDK2 cyclin dependent kinase assay, phosphorylation of synthetic peptide […] (33P-ATP filtration)
Format: biochemical
Settings: Table 3; 0.1 mM ATP
METRIC: IC50

Just so you know, measured IC50 for CN(C)S(=O)(=O)c1ccc(Nc2cc(-c3cccc(F)c3)n3ncnc3n2)cc1 [Example 129] came out at > 200 µM

Just so you know, measured IC50 for CC(=O)Nc1cccc(Nc2cc(-c3cccc(F)c3)n3ncnc3n2)c1 [Example 131] came out at > 200 µM

Just so you know, measured IC50 for NC(=O)c1ccc(Nc2cc(-c3ccc4c(c3)OCO4)n3ncnc3n2)cc1 [Example 137] came out at > 200 µM

----------
Assign log10 of IC50 to each entry below.
Biological target: PDK1 enzyme (Homo sapiens, UniProt O15530)
Sequence (O15530 whole entry): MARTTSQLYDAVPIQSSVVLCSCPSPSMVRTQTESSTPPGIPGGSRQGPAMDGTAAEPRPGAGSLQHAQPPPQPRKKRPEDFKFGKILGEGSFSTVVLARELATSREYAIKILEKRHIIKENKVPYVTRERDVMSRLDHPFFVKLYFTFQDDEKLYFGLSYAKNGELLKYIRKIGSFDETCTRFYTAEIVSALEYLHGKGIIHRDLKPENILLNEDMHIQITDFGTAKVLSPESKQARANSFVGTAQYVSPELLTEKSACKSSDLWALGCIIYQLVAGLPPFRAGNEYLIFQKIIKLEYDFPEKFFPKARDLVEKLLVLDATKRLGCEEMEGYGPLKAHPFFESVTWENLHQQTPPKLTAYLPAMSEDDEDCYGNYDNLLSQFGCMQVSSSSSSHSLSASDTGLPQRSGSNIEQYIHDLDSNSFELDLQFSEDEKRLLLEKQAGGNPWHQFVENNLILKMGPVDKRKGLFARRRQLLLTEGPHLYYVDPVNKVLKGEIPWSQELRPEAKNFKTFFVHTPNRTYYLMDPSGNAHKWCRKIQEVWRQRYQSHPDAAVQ
Test: PDK1 3'-phosphoinositide-dependent kinase assay, phosphorylation of synthetic peptide (33P-ATP filtration)
Type: biochemical
Conditions: Table 3; 0.01 mM ATP; read-out: PDK1 IC50
On a log10 scale: recorded IC50, unit µM.

Just so you know, measured log10 of IC50 for N#Cc1ccc(Nc2cc(-c3cccc(F)c3)n3ncnc3n2)cc1 [Example 112] came out at 1.71

Just so you know, measured log10 of IC50 for NC(=O)c1cccc(Nc2cc(-c3cccc(F)c3)n3ncnc3n2)c1 [Example 134] came out at 0.91

Just so you know, measured log10 of IC50 for NC(=O)c1ccc(Nc2cc(-c3cccc(F)c3)n3ncnc3n2)cc1 [Example 117] came out at 0.86

Just so you know, measured log10 of IC50 for Cc1cccc(-c2cc(Nc3ccc(N4CCN(C)CC4)cc3)nc3ncnn23)c1 [Example 109] came out at 1.56

Just so you know, measured log10 of IC50 for O=C(O)c1ccc(Nc2cc(-c3cccc(F)c3)n3ncnc3n2)cc1 [Example 132] came out at 1.56

Just so you know, measured log10 of IC50 for CC(=O)Nc1cccc(Nc2cc(-c3cccc(F)c3)n3ncnc3n2)c1 [Example 131] came out at 1.84

Just so you know, measured log10 of IC50 for NC(=O)c1ccc(Nc2cc(-c3ccccc3)n3ncnc3n2)cc1 [Example 116] came out at 0.71

Just so you know, measured log10 of IC50 for Cc1ccc(-c2cc(Nc3ccc(C(N)=O)cc3)nc3ncnn23)cc1 [Example 138] came out at 0.62

Just so you know, measured log10 of IC50 for CCN(CC)CCNC(=O)c1ccc(Nc2cc(-c3cccc(C)c3)n3ncnc3n2)cc1 [Example 105] came out at 0.79

Just so you know, measured log10 of IC50 for Cc1cccc(-c2cc(Nc3ccc(N(C)C)cc3)nc3ncnn23)c1 [Example 108] came out at 1.82

----------
Assign IC50 to each entry below.
Molecular target: PDK1 enzyme (Homo sapiens, UniProt O15530)
Experiment: PDK1 3'-phosphoinositide-dependent kinase assay, phosphorylation of synthetic peptide (33P-ATP filtration)
Format: biochemical
Conditions: Table 4; 0.01 mM ATP; read-out: PDK1 IC50
// units = µM; emit number, no label

Just so you know, measured IC50 for CCc1cc(OCCN)cc(-c2cc(Nc3ccc(C(N)=O)cc3)nc3ncnn23)c1 came out at 1.2

Just so you know, measured IC50 for NC(=O)c1ccc(Nc2cc(-c3cccc(O)c3)n3ncnc3n2)cc1 came out at 4.66

Just so you know, measured IC50 for Fc1cccc(-c2cc(Nc3cccc(Oc4ccccc4)c3)nc3ncnn23)c1 came out at 13.4

Just so you know, measured IC50 for CCOc1cccc(-c2cc(Nc3ccc(C(N)=O)cc3)nc3ncnn23)c1 came out at 12.2

Just so you know, measured IC50 for CN(C)c1ccc(Nc2cc(-c3cccc(F)c3)n3ncnc3n2)cc1 came out at 10.5

Just so you know, measured IC50 for NC(=O)COc1cccc(-c2cc(Nc3ccc(C(N)=O)cc3)nc3ncnn23)c1 came out at 4.82
